Where do the numbers come from? From BigSolDB 2.1.

conditions: in ethylene glycol, 293.15 K
measurement kind: solubility (mole fraction)
Answers are plain numbers.

### Prompt Reported solubility (mole fraction), compound Cc1cnc(NC(=O)C2=C(O)c3ccccc3S(=O)(=O)N2C)s1 : ____
### Response 2.59e-05

###

details: in water, 308.15 K
measurement kind: solubility (mole fraction)

### Prompt Reported solubility (mole fraction), compound Cc1cnc(NC(=O)C2=C(O)c3ccccc3S(=O)(=O)N2C)s1 : ____
### Response 1.1e-06

###

settings: in water, 288.15 K
measurement kind: solubility (mole fraction)
Numbers only.

### Prompt Reported solubility (mole fraction), compound Cc1cnc(NC(=O)C2=C(O)c3ccccc3S(=O)(=O)N2C)s1 : ____
### Response 2e-07
